# Assay system: Metallo-beta-lactamase type 2 (Klebsiella pneumoniae)
# Sequence (C7C422 whole entry): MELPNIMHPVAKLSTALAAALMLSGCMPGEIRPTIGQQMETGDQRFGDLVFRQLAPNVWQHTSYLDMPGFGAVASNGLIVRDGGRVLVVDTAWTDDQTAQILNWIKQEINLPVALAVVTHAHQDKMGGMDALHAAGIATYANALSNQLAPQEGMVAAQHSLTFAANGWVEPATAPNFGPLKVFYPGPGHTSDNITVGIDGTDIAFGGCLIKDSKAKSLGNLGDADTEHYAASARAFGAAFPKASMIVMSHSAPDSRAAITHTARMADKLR
# Experiment: Binding affinity to bacterial NDM-1 (unknown origin) assessed as inhibition constant
Endpoint name: pKi
One number for each entry, as −log10 of the molar value.

// CN1CCN(C(=S)N/N=C/c2ccccc2O)CC1 : pKi value = 9.36
